Answer each item with its documented half-life at 0.5 µM.
experiment: human metabolic stability half-life assay; settings: microsomes, pH 7.4, CYP-mediated metabolic stability half life, human liver microsomes, NADPH-dependent

Consider the worked cases shown below.
[
  {
    "Molecular String": "CCC[C@H](C(N)=O)[C@@H](CCC(F)(F)F)C(=O)N[C@H]1N=C(c2ccc(Cl)cc2)c2cccc(OC)c2NC1=O",
    "Property Label": "half-life at 0.5 µM",
    "Readout Value": "≥ 30 min"
  },
  {
    "Molecular String": "CCC[C@H](C(N)=O)[C@@H](CCC(F)(F)F)C(=O)N[C@H]1N=C(c2ccccc2)c2cccc(Cl)c2NC1=O",
    "Property Label": "half-life at 0.5 µM",
    "Readout Value": "≥ 30 min"
  },
  {
    "Molecular String": "NC(=O)[C@@H](CC1CC1)[C@@H](CCC(F)(F)F)C(=O)N[C@H]1N=C(c2ccccc2)c2cccc(Cl)c2NC1=O",
    "Property Label": "half-life at 0.5 µM",
    "Readout Value": "≥ 30 min"
  },
  {
    "Molecular String": "COc1cccc2c1NC(=O)[C@@H](NC(=O)[C@H](CCC(F)(F)F)[C@H](CC1CC1)C(N)=O)N=C2c1ccc(Cl)cc1",
    "Property Label": "half-life at 0.5 µM",
    "Readout Value": "≥ 30 min"
  },
  {
    "Molecular String": "COc1ccc2c(c1F)NC(=O)[C@@H](NC(=O)[C@H](CCC(F)(F)F)[C@H](CC1CC1)C(N)=O)N=C2c1ccccc1",
    "Property Label": "half-life at 0.5 µM",
    "Readout Value": "≥ 30 min"
  }
]

Need half-life at 0.5 µM for each of these molecules.
1. COc1cccc2c1NC(=O)[C@@H](NC(=O)[C@H](CCC(F)(F)F)[C@H](CC1CC1)C(N)=O)N=C2c1cccc(F)c1
2. CCC[C@H](C(N)=O)[C@@H](CCC(F)(F)F)C(=O)N[C@H]1N=C(c2ccc(Cl)cc2)c2cccc(Cl)c2NC1=O

["≥ 30 min", "≥ 30 min"]

Sure, the documented half-life at 0.5 µM for "NC(=O)[C@@H](CC1CC1)[C@@H](CCC(F)(F)F)C(=O)N[C@H]1N=C(c2cccc(F)c2)c2cccc(OC3CC3)c2NC1=O" is ≥ 30 min
